Each recorded value in this set is attributed to paper PMC9234961.

# MEASUREMENT TARGET: ADRA2A (Homo sapiens, UniProt P08913)
# Sequence (P08913 whole entry): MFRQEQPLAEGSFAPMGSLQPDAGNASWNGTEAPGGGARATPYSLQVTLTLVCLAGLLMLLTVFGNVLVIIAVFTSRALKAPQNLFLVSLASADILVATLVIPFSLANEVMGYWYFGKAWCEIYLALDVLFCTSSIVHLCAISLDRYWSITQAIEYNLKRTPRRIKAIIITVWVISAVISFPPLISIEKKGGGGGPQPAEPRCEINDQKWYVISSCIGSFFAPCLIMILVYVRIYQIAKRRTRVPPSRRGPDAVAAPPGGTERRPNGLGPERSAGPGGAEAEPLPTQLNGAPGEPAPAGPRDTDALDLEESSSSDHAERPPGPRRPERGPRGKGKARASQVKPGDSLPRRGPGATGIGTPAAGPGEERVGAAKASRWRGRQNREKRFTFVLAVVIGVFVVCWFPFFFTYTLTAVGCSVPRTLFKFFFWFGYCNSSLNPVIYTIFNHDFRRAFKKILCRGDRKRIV
# ASSAY METHOD TEXT: SAFETYScan GPCR cAMP, Agonist
# REPORTED CONDITIONS: read-out: RC50 (EC50)
MEASURED QUANTITY: EC50

Prompt: // lookup EC50 for C[C@H]1C[C@@H](O)CN(c2ncc(Cl)c(Nc3ccc4c(c3)c3c(c(=O)n4C)OCC(F)(F)[C@H](C4CC4)N3)n2)C1 [12a CCT373566]
Completion: > 10 µM

----------
# MEASUREMENT TARGET: human BCL6 BTB domain (Homo sapiens, UniProt P41182)
# ASSAY METHOD TEXT: biochemical
# REPORTED CONDITIONS: BCL6 TR-FRET pIC50 mean, mean of replicates
MEASURED QUANTITY: pIC50
Friendly reminder that pIC50 comes from taking -log10 of the concentration in mol/L.

Example compounds with recorded pIC50:
C[C@H]1C[C@@H](O)CN(c2ncc(Cl)c(Nc3ccc4c(c3)n(CCC(C)(C)O)c(=O)n4C)n2)C1 (relative stereo) | 7.02
Cn1c(=O)c2c(c3cc(Nc4nc(N5CCC[C@H](O)C5)ncc4Cl)ccc31)N[C@@H](C1CC1)C(F)(F)CO2 [14b] | 8.53

Consider now this further compound.
Prompt: // lookup pIC50 for Cn1c(=O)c2c(c3cc(Nc4nc(N5CCC[C@@H](O)C5)ncc4Cl)ccc31)N[C@@H](C1CC1)C(F)(F)CO2 [14a]
Completion: 8.61

----------
# MEASUREMENT TARGET: endogenous BCL6 in OCI-Ly1 cells (Homo sapiens)
# ASSAY METHOD TEXT: cell-based
# REPORTED CONDITIONS: mean maximal degradation of BCL6; OCI-Ly1 cells, 2 h
MEASURED QUANTITY: MSD degrader assay [OCI-Ly1] Dmax (%)
The reply should be a number in %, with the unit left off.

CC(=O)N[C@@H]1C[C@H](C)CN(c2ncc(Cl)c(Nc3ccc4c(c3)c3c(c(=O)n4C)OCC(F)(F)[C@H](C4CC4)N3)n2)C1 [10a] | 67
C[C@@H]1CCCN(c2ncc(Cl)c(Nc3ccc4c(c3)c3c(c(=O)n4C)OCC(F)(F)[C@H](C4CC4)N3)n2)C1 [15b] | 72

Consider now this further compound.
Prompt: // lookup MSD degrader assay [OCI-Ly1] Dmax for Cn1c(=O)c2c(c3cc(Nc4nc(N5CCC(F)(F)[C@@H](CO)C5)ncc4Cl)ccc31)N[C@@H](C1CC1)C(F)(F)CO2
Completion: 83

----------
# MEASUREMENT TARGET: endogenous BCL6 in OCI-Ly1 cells (Homo sapiens, UniProt P41182)
# ASSAY METHOD TEXT: cell-based
# REPORTED CONDITIONS: single replicate values
MEASURED QUANTITY: MSD degrader assay [OCI-LY1] Dmax individual replicates (%)
The reply should be a number in %, with the unit left off.

Example compounds with recorded MSD degrader assay [OCI-LY1] Dmax individual replicates:
Cn1c(=O)c2c(c3cc(Nc4nc(N5CCC(F)(F)[C@@H](CO)C5)ncc4Cl)ccc31)N[C@@H](C1CC1)C(F)(F)CO2 | 89.0
Cn1c(=O)n(CCC(C)(C)O)c2cc(Nc3nc(N4CCC(F)(F)C(O)C4)ncc3Cl)ccc21 (stereo not shown) | 74.1
C[C@H]1C[C@@H](O)CN(c2ncc(Cl)c(Nc3ccc4c(c3)n(CCC(C)(C)O)c(=O)n4C)n2)C1 (relative stereo) | 86.653

Consider now this further compound.
Prompt: Could you share what MSD degrader assay [OCI-LY1] Dmax individual replicates was measured for CC(=O)N[C@@H]1C[C@H](C)CN(c2ncc(Cl)c(Nc3ccc4c(c3)c3c(c(=O)n4C)OCC(F)(F)[C@H](C4CC4)N3)n2)C1 [10a] , tested on endogenous BCL6 in OCI-Ly1 cells (Homo sapiens, UniProt P41182)?
Completion: 61.63

----------
# MEASUREMENT TARGET: CCKAR (Homo sapiens, UniProt P32238)
# Sequence (P32238 whole entry): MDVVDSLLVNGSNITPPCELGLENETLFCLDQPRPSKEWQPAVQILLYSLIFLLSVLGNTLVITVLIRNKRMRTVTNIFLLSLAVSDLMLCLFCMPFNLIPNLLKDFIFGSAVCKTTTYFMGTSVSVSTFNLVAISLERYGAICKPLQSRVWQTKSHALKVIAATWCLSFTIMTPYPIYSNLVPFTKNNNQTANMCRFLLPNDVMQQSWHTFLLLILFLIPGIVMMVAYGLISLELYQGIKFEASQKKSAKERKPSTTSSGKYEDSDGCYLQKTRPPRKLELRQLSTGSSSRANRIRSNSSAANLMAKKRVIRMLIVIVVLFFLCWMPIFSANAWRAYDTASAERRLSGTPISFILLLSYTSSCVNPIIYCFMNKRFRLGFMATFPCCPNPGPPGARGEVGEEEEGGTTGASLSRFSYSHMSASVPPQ
# ASSAY METHOD TEXT: SAFETYScan GPCR Calcium Flux, Antagonist
# Type: cell-based
# REPORTED CONDITIONS: read-out: RC50 (IC50)
# Description: Supplement jm1c02175_si_002.xlsx, sheet "SAFETYScan" | column: RC50 (uM); Max Response
pIC50: −log10 of the molar value.
MEASURED QUANTITY: pIC50

Prompt: Could you share what pIC50 was measured for C[C@H]1C[C@@H](O)CN(c2ncc(Cl)c(Nc3ccc4c(c3)c3c(c(=O)n4C)OCC(F)(F)[C@H](C4CC4)N3)n2)C1 [12a CCT373566] , tested on CCKAR (Homo sapiens, UniProt P32238)?
Completion: < 5.00

----------
Reported log10(IC50) values are given for each entry in this list.
# MEASUREMENT TARGET: human BCL6 BTB domain (Homo sapiens, UniProt P41182)
# REPORTED CONDITIONS: read-out: BCL6 TR-FRET IC50; geometric mean; BCOR-AF633 peptide, 2 h incubation
Values are log10 of IC50 in nM.

Cn1c(=O)c2c(c3cc(Nc4nc(N5CCC[C@@H](O)C5)ncc4Cl)ccc31)N[C@@H](C1CC1)C(F)(F)CO2 [14a] | 0.48
Cn1c(=O)c2c(c3cc(Nc4nc(N5CCC[C@H](O)C5)ncc4Cl)ccc31)N[C@@H](C1CC1)C(F)(F)CO2 [14b] | 0.40
Cn1c(=O)c2c(c3cc(Nc4nc(N5CCC(F)(F)[C@@H](CO)C5)ncc4Cl)ccc31)N[C@@H](C1CC1)C(F)(F)CO2 | 0.18
Cn1c(=O)c2c(c3cc(Nc4nc(N5CCC(F)(F)[C@H](CO)C5)ncc4Cl)ccc31)N[C@@H](C1CC1)C(F)(F)CO2 | 0.61
C[C@H]1C[C@@H](N(C)C)CN(c2ncc(Cl)c(Nc3ccc4c(c3)c3c(c(=O)n4C)OCC(F)(F)[C@H](C4CC4)N3)n2)C1 [11a] | 0.52
C[C@@H]1C[C@H](O)CN(c2ncc(Cl)c(Nc3ccc4c(c3)c3c(c(=O)n4C)OCC(F)(F)[C@H](C4CC4)N3)n2)C1 [12b CCT373567] | 0.45

Prompt: Could you share what log10(IC50) was measured for Cn1c(=O)n(CCC(C)(C)O)c2cc(Nc3nc(N4CCC(F)(F)C(O)C4)ncc3Cl)ccc21 (stereo not shown) , tested on human BCL6 BTB domain (Homo sapiens, UniProt P41182)?
Completion: 2.38

Prompt: Could you share what log10(IC50) was measured for C[C@H]1CCCN(c2ncc(Cl)c(Nc3ccc4c(c3)c3c(c(=O)n4C)OCC(F)(F)[C@H](C4CC4)N3)n2)C1 [15a] , tested on human BCL6 BTB domain (Homo sapiens, UniProt P41182)?
Completion: 1.56

Prompt: Could you share what log10(IC50) was measured for CC(=O)N[C@@H]1C[C@H](C)CN(c2ncc(Cl)c(Nc3ccc4c(c3)c3c(c(=O)n4C)OCC(F)(F)[C@H](C4CC4)N3)n2)C1 [10a] , tested on human BCL6 BTB domain (Homo sapiens, UniProt P41182)?
Completion: 0.56

Prompt: Could you share what log10(IC50) was measured for C[C@H]1C[C@H](O)CN(c2ncc(Cl)c(Nc3ccc4c(c3)c3c(c(=O)n4C)OCC(F)(F)[C@H](C4CC4)N3)n2)C1 [13b] , tested on human BCL6 BTB domain (Homo sapiens, UniProt P41182)?
Completion: 0.78

Prompt: Could you share what log10(IC50) was measured for Cn1c(=O)c2c(c3cc(Nc4nc(N5CCC(F)(F)[C@H](O)C5)ncc4Cl)ccc31)N[C@@H](C1CC1)C(F)(F)CO2 (single isomer, unassigned) , tested on human BCL6 BTB domain (Homo sapiens, UniProt P41182)?
Completion: 0.66

Prompt: Could you share what log10(IC50) was measured for Cn1c(=O)c2c(c3cc(Nc4nc(N5CCC(F)(F)[C@@H](O)C5)ncc4Cl)ccc31)N[C@@H](C1CC1)C(F)(F)CO2 (single isomer, unassigned) , tested on human BCL6 BTB domain (Homo sapiens, UniProt P41182)?
Completion: 0.54

Prompt: Could you share what log10(IC50) was measured for C[C@@H]1C[C@H](N(C)C)CN(c2ncc(Cl)c(Nc3ccc4c(c3)c3c(c(=O)n4C)OCC(F)(F)[C@H](C4CC4)N3)n2)C1 [11b] , tested on human BCL6 BTB domain (Homo sapiens, UniProt P41182)?
Completion: 0.56

Prompt: Could you share what log10(IC50) was measured for C[C@@H]1CCCN(c2ncc(Cl)c(Nc3ccc4c(c3)c3c(c(=O)n4C)OCC(F)(F)[C@H](C4CC4)N3)n2)C1 [15b] , tested on human BCL6 BTB domain (Homo sapiens, UniProt P41182)?
Completion: 1.39

Prompt: Could you share what log10(IC50) was measured for CC(=O)N[C@H]1C[C@@H](C)CN(c2ncc(Cl)c(Nc3ccc4c(c3)c3c(c(=O)n4C)OCC(F)(F)[C@H](C4CC4)N3)n2)C1 [10b] , tested on human BCL6 BTB domain (Homo sapiens, UniProt P41182)?
Completion: 0.46

Prompt: Could you share what log10(IC50) was measured for C[C@@H]1C[C@@H](O)CN(c2ncc(Cl)c(Nc3ccc4c(c3)c3c(c(=O)n4C)OCC(F)(F)[C@H](C4CC4)N3)n2)C1 [13a] , tested on human BCL6 BTB domain (Homo sapiens, UniProt P41182)?
Completion: 1.00
